// data source = patent US8580746B2

Biological target: hNPR-A (Homo sapiens)
Sequence (P16066 33-1061): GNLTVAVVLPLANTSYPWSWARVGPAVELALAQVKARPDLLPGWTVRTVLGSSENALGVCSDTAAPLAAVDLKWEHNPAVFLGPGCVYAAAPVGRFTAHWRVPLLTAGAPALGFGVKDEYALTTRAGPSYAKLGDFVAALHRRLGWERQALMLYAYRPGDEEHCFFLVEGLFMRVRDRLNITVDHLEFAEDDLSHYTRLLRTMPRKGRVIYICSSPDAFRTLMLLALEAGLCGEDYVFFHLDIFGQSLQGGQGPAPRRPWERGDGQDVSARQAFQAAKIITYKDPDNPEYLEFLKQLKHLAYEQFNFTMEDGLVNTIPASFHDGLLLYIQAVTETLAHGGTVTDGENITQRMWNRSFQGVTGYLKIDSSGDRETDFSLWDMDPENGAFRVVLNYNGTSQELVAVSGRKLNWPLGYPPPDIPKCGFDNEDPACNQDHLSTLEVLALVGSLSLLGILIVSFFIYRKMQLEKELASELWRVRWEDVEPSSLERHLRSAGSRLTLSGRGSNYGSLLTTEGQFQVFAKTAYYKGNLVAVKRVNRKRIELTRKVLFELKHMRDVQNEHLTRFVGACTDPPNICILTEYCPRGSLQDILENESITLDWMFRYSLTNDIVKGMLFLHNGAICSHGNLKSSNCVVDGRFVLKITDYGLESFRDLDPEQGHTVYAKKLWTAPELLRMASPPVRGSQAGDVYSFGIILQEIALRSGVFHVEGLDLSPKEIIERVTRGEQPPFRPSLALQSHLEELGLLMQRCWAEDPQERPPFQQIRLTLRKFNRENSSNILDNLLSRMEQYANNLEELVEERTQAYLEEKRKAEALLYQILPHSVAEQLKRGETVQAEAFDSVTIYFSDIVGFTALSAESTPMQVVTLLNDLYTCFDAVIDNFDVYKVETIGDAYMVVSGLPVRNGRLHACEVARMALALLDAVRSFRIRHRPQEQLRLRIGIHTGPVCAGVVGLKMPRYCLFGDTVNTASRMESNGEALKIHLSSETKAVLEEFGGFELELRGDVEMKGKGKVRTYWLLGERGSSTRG
Assay: Accumulation of intracellular cGMP in HEK-293 cells that express recombinant hNPR-A
Details: HEK-hNPRA cells
Numbered stars: 1 amine (or outer) side, 2 acyl side, 3 side chain; on linkers, the order of the positions; unused ones are H or OH. Bridge positions count the residues as written; N and C are the ends. Square brackets hold non-standard residues; d marks the D form. Peptide text beside a SMILES is read from it. * marks the point of attachment. X1 = N=C(N)NCCC[C@H]1C(=O)N[C@@H](C(N)=O)CN1*; Glutaryl = O=C(CCCC(=O)[*:2])[*:1]; Suc = O=C(CCC(=O)[*:2])[*:1]; dNle = CCCC[C@@H](N)C(=O)O; Heptanoyl = CCCCCCC(=O)*; Nle = CCCC[C@H](N)C(=O)O; Orn = NCCC[C@H](N)C(=O)O; Dab = NCC[C@H](N)C(=O)O; Dap = NC[C@H](N)C(=O)O
measured.property: log10 of EC50 (log10 of the value in nM)
Hi team, quick reminder: these entries are log10 of EC50 (nM).

Given the entry CCCCCCC(=O)N[C@H]1CC(=O)NCC[C@@H](C(=O)N[C@@H](Cc2ccc(O)cc2)C(=O)N2C[C@H](C(N)=O)NC(=O)[C@@H]2CCCNC(=N)N)NC(=O)[C@H](CO)NC(=O)[C@H]([C@@H](C)CC)NC(=O)[C@H](CCCNC(=N)N)NC(=O)[C@H](CC(=O)O)NC(=O)[C@@H](CCCC)NC(=O)[C@H](CCCNC(=N)N)NC(=O)CNC(=O)[C@@H](C)NC(=O)[C@H](Cc2ccccc2)NC(=O)[C@H](Cc2c[nH]cn2)NC1=O [4-138] (Heptanoyl-DHF[dA]GR[dNle]DRIS[Dab]Y-X1; lactam 1-12) , report its measured log10 of EC50. 0.60

Also check CCCC[C@H]1NC(=O)[C@H](CCCNC(=N)N)NC(=O)CNC(=O)[C@@H](C)NC(=O)[C@H](Cc2ccccc2)NC(=O)[C@H](Cc2c[nH]cn2)NC(=O)[C@@H](NC(=O)[C@@H](C)N)CCC(=O)NCC[C@@H](C(=O)N[C@@H](Cc2ccc(O)cc2)C(=O)N2C[C@H](C(N)=O)NC(=O)[C@@H]2CCCNC(=N)N)NC(=O)[C@H](CO)NC(=O)[C@H]([C@@H](C)CC)NC(=O)[C@H](CCCNC(=N)N)NC(=O)[C@H](CC(=O)O)NC1=O [4-90] (H-[dA]EHF[dA]GR[dNle]DRIS[Dab]Y-X1; lactam 2-13) 1.04

Now give it for CCCCCCC(=O)N[C@H]1CNC(=O)CCCC(=O)NCCC[C@@H](C(=O)N[C@@H](Cc2ccc(O)cc2)C(=O)N2C[C@H](C(N)=O)NC(=O)[C@@H]2CCCNC(=N)N)NC(=O)[C@H](CO)NC(=O)[C@H]([C@@H](C)CC)NC(=O)[C@H](CCCNC(=N)N)NC(=O)[C@H](CC(=O)O)NC(=O)[C@H](CCCC)NC(=O)[C@H](CCCNC(=N)N)NC(=O)CNC(=O)[C@@H](C)NC(=O)[C@H](Cc2ccccc2)NC(=O)[C@@H](Cc2c[nH]cn2)NC1=O [1-31] (Heptanoyl-[Dap][dH]F[dA]GR[Nle]DRIS[Orn]Y-X1; linker 1-12 via Glutaryl) too. 1.00

Repeat for the following compound: CCCC[C@H]1NC(=O)[C@H](CCCNC(=N)N)NC(=O)CNC(=O)CNC(=O)[C@H](Cc2ccccc2)NC(=O)[C@H](Cc2c[nH]cn2)NC(=O)[C@@H](NC(=O)[C@@H](C)N)CC(=O)NCC[C@@H](C(=O)N[C@@H](Cc2ccc(O)cc2)C(=O)N2C[C@H](C(N)=O)NC(=O)[C@@H]2CCCNC(=N)N)NC(=O)[C@H](CO)NC(=O)[C@H]([C@@H](C)CC)NC(=O)[C@H](CCCNC(=N)N)NC(=O)[C@H](CC(=O)O)NC1=O [4-98] (H-[dA]DHFGGR[dNle]DRIS[Dab]Y-X1; lactam 2-13) -0.60

Now the same for CCCC[C@@H]1NC(=O)[C@H](CCCNC(=N)N)NC(=O)CNC(=O)CNC(=O)[C@H](Cc2ccccc2)NC(=O)[C@H](Cc2c[nH]cn2)NC(=O)[C@@H](N)CC(=O)NCC[C@@H](C(=O)N[C@@H](Cc2ccc(O)cc2)C(=O)N2C[C@H](C(N)=O)NC(=O)[C@@H]2CCCNC(=N)N)NC(=O)[C@H](CO)NC(=O)[C@H]([C@@H](C)CC)NC(=O)[C@H](CCCNC(=N)N)NC(=O)[C@H](CC(=O)O)NC1=O [4-143] (H-DHFGGR[Nle]DRIS[Dab]Y-X1; lactam 1-12) -0.70

What do you have for CCCCCCC(=O)N[C@H]1CNC(=O)CCC(=O)NC[C@@H](C(=O)N[C@@H](Cc2ccc(O)cc2)C(=O)N2C[C@H](C(N)=O)NC(=O)[C@@H]2CCCNC(=N)N)NC(=O)[C@H](CO)NC(=O)[C@H]([C@@H](C)CC)NC(=O)[C@H](CCCNC(=N)N)NC(=O)[C@H](CC(=O)O)NC(=O)[C@H](CCCC)NC(=O)[C@H](CCCNC(=N)N)NC(=O)CNC(=O)[C@@H](C)NC(=O)[C@H](Cc2ccccc2)NC(=O)[C@@H](Cc2c[nH]cn2)NC1=O [1-37] (Heptanoyl-[Dap][dH]F[dA]GR[Nle]DRIS[Dap]Y-X1; linker 1-12 via Suc) ? -0.15
